Biological target: MBP-SNX17V380D (Homo sapiens, UniProt Q15036, V380D)
Construct: M protein marker, R Retriever complex, FL full-length; His (N, cleaved yes); made in house; host or cells: Escherichia coli BL21(DE3)
Test: Fluorescence anisotropy binding of 5-FAM peptides to MBP-SNX17 V380D
Conditions: 5-FAM peptide, Bmax fixed at 240, replicate Y2 (Fig. 4E source data), read-out: KD MBP-SNX17V380D
pKd: −log10 of the molar value. Where no end group is shown, it is not given here.
Test readout: pKd

# get_value(readout='pKd', item= MNVEIGNPTYKMYE [LRP1 14-mer] )
< 4.49

====

Biological target: MBP-SNX17N459A+F462A (Homo sapiens, UniProt Q15036, F462A/N459A)
Construct: M protein marker, R Retriever complex, FL full-length; His (N, cleaved yes); made in house; host or cells: Escherichia coli BL21(DE3)
Test: Fluorescence anisotropy binding of 5-FAM peptides to MBP-SNX17 N459A+F462A
Where no end group is shown, it is not given here.
Test readout: pKd
Value format note: pKd is -log10 of concentration (mol/L); just state the number.

Quick check: pKd of KLITYDNPAYEGID [L2 14-mer] ?
6.22

====

Biological target: MBP (Escherichia coli)
Assay: Fluorescence anisotropy, MBP negative control
Assay type: binding
Conditions: 5-FAM peptide, replicate Y2, sheet KD-L2-14-mer, unit inferred, read-out: KD MBP
pKd: −log10 of the molar value. Where no end group is shown, it is not given here.
Test readout: pKd

Query: pKd; subject: KLITYDNPAYEGID [L2 14-mer]
< 4.49

====

Target: MBP-SNX17V380D (Homo sapiens, UniProt Q15036, V380D)
Construct: M protein marker, R Retriever complex, FL full-length; His (N, cleaved yes); made in house; host or cells: Escherichia coli BL21(DE3)
Test: Fluorescence anisotropy binding of 5-FAM peptides to MBP-SNX17 V380D
Details: 5-FAM peptide, replicate Y2, sheet KD-L2-14-mer, unit inferred, read-out: KD MBP-SNX17V380D
Where no end group is shown, it is not given here.
Test readout: Kd

Quick check: Kd of KLITYDNPAYEGID [L2 14-mer] ?
> 32 µM

====

Target: MBP-SNX17V380D (Homo sapiens, UniProt Q15036, V380D)
Construct: M protein marker, R Retriever complex, FL full-length; His (N, cleaved yes); made in house; host or cells: Escherichia coli BL21(DE3)
Sequence (Q15036 1-470 V380D): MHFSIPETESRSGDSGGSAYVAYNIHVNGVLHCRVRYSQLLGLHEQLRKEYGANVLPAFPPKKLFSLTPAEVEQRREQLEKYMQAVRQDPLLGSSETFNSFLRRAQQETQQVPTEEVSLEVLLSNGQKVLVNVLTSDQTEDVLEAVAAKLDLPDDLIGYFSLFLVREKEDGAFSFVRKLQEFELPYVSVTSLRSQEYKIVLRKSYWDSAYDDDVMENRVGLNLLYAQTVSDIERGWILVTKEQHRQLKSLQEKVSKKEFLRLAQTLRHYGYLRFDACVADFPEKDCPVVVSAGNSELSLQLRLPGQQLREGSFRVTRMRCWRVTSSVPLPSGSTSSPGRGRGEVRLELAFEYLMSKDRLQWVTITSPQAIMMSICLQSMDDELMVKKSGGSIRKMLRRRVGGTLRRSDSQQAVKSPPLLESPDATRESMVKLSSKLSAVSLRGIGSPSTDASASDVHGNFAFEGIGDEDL
Test: Fluorescence anisotropy binding of 5-FAM peptides to MBP-SNX17 V380D
Conditions: 5-FAM peptide, replicate Y1, sheet KD-L2-14-mer, unit inferred, read-out: KD MBP-SNX17V380D
Where no end group is shown, it is not given here.
Test readout: Kd

Reported Kd, sequence KLITYDNPAYEGID [L2 14-mer] : ____
> 32 µM

Hello, the source for this data is paper PMC11772769, in case you need it.
